Measured values drawn from the METLIN SMRT retention time set (Domingo-Almenara et al. 2019) for this set.

# PROTOCOL DETAILS: gradient 5% acetonitrile 3 min, to 50% in 2 min, to 85% in 15 min, held 3 min, 100 µL/min
# CONDITION DETAILS: column: Zorbax Extend-C18 2.1 x 50 mm; eluents: water / acetonitrile, 0.1% formic acid
ENDPOINT NAME: RP-LC retention time
Kindly write the number and append the unit.

[in] Find the recorded RP-LC retention time belonging to "CCOC(=O)c1ccc(NS(=O)(=O)c2cc3n(c2)CCN(C(C)C)C3=O)cc1" and report it.
[out] 777 s

[in] Please answer likewise for "O=C(Cn1c(=O)oc2ccccc21)Nc1nc(-c2nc3ccccc3s2)cs1"
[out] 866 s

[in] Please answer likewise for "COc1ccc(NC(=O)NCCn2c(C(F)(F)F)nc3cccnc32)cc1"
[out] 701 s

[in] Please answer likewise for "Cc1cccc(C)c1NC(=O)Cn1c(=O)n(-c2ccccc2)c(=O)c2c1cc(C)n2C"
[out] 864 s

[in] Please answer likewise for "CC(C)c1ccc(-n2nc(N3CCN(C(=O)Cn4ccnc4)CC3)ccc2=O)cc1"
[out] 731 s

[in] Please answer likewise for CCC(=O)NCc1csc(C2CCCN(C(=O)CC(C)(C)C)C2)n1 (centres undefined)
[out] 703 s

[in] Please answer likewise for "C=CCn1c(C)c(CC(=O)NCCOC)c(=O)n2nc(-c3ccc(C)cc3)nc12"
[out] 732 s

[in] Please answer likewise for CC1(C(=O)NCc2ccccc2)CCCN(S(=O)(=O)c2ccccc2Cl)C1 (centres undefined)
[out] 946 s

[in] Please answer likewise for "Cn1nc(C(=O)N2CCCCC2)c2c1CCN(C(=O)CCC(=O)NC1CCCCC1)C2"
[out] 681 s
